- experimental-target: Carbonic anhydrase 7 (Homo sapiens)
- Sequence (P43166 whole entry): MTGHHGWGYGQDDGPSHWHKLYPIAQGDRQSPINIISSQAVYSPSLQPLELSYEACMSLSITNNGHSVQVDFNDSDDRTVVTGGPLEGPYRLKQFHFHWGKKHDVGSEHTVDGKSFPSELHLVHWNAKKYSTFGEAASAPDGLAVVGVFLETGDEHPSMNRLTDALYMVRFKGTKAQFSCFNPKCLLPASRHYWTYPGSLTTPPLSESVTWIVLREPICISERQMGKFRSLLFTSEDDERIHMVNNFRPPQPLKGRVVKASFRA
- test-protocol: Inhibition of recombinant human carbonic anhydrase VII assessed as inhibition constant incubated for 15 mins by phenol red dye based stopped-flow CO2 hydration assay
pKi: −log10 of the molar value.
value-type: pKi

>>> reported_measurement("OB1OCc2ccc(-n3cc(COc4ccc(F)cc4)nn3)cc21")
7.45
>>> reported_measurement("OB1OCc2ccc(-n3cc(C4CC4)nn3)cc21")
6.32
>>> reported_measurement("O=c1ccc2ccc(OCc3cn(-c4ccc5c(c4)B(O)OC5)nn3)cc2o1")
7.15
>>> reported_measurement("OB1OCc2ccc(-n3cc(-c4ccccc4)nn3)cc21")
6.58
>>> reported_measurement("COc1ccc(OCc2cn(-c3ccc4c(c3)B(O)OC4)nn2)cc1")
7.06
>>> reported_measurement("O=C(O)c1cccc(-c2cn(-c3ccc4c(c3)B(O)OC4)nn2)c1")
7.17
>>> reported_measurement("COc1cccc(OCc2cn(-c3ccc4c(c3)B(O)OC4)nn2)c1")
6.91

// provenance: ChEMBL document CHEMBL5338821
